# measurement.target: T1, human PRLR on HEK293/hPRLR cells (Homo sapiens, UniProt P16471)
# T1 construct: HA; expressed in transfected cells; host or cells: HEK293
# T1 sequence (P16471 25-622): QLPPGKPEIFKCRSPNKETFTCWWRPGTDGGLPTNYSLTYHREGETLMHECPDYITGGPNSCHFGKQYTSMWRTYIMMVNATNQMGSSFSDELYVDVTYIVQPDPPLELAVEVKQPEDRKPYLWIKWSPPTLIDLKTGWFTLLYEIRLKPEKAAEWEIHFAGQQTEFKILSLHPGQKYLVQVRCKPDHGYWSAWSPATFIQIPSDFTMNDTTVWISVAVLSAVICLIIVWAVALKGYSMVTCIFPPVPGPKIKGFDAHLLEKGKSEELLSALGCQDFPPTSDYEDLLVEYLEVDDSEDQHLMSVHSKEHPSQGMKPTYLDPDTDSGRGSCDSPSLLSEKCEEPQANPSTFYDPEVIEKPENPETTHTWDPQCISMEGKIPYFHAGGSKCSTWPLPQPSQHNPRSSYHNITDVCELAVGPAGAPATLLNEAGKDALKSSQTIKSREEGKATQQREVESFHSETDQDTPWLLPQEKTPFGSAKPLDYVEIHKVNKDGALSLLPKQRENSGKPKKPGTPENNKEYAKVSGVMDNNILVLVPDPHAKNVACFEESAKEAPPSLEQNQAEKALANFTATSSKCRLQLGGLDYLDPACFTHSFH
# measurement.description: FACS cell surface binding
value.kind: FACS Cell Binding (Fold Above Background)
Report the value in Fold Above Background with no unit label.

What FACS Cell Binding value was documented for this molecule, H1H6803P: fully human anti-PRLR antibody, human IgG1 Fc; HCVR/LCVR SEQ ID NOs 226/234 (antibody, V domains shown) VH: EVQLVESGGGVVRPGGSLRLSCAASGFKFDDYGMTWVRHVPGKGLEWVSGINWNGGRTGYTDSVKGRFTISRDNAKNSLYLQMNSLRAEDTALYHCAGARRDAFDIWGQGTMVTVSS VL: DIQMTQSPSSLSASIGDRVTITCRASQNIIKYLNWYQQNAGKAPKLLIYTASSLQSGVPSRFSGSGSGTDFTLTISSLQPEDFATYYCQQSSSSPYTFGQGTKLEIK ?
39
